Measured values drawn from PubChem BioAssay (EPA / NIEHS) for this set.

protocol-description: CCTE_Padilla_ZF_Score.Any: CCTE's 144 Hour Post-fertilization zebrafish Assay Score for Any Mortality or Malformation, Padilla Lab (AID 2284416)
Calls of active or inactive are those of the source. How the source made its calls: active means hit-call score of the fitted dose curve at least 0.9, where 1 is the maximum; inactive means score below 0.9.
Give your call using only these classes: 1 = active, -1 = inactive

OCC(F)(F)OC(F)(F)C(F)(F)OC(F)(F)C(F)(F)OC(F)(F)F :: 1
O=C(O)C(F)(F)C(F)(F)C(=O)O :: -1
O=S(=O)(F)C(F)(F)C(F)(F)C(F)(F)C(F)(F)C(F)(F)C(F)(F)C(F)(F)C(F)(F)F :: -1
O=C(O)C=CC(F)(C(F)(F)F)C(F)(F)F :: -1

Now take the following molecule into account.
q: Just curious, what result did COC(=O)C(F)(F)C(F)(F)OC(F)(C(F)(F)F)C(F)(F)OC(F)=C(F)F (stereo not given) get here?
a: -1

====

protocol-description: ATG_E_Box_CIS: Attagene CIS-FACTORIAL HepG2 Assay for human Enhancer Box (E-box) (AID 2282936)
condition: HepG2 E-box cis-reporter transcription, actives raise or lower the signal
Calls of active or inactive are those of the source. Rule for the calls: active = hit-call score of the fitted dose curve at least 0.9, where 1 is the maximum; inactive = score below 0.9.
Give your call using only these classes: YES (active), NO (inactive)

Please review the entries below; each comes with its answer.
Cc1c([N+](=O)[O-])cc2c(c1[N+](=O)[O-])C(C)(C)CC2(C)C :: NO
CCC(C)(C)c1ccc(O)cc1 :: NO
O=P(OCC(Br)CBr)(OCC(Br)CBr)OCC(Br)CBr (stereo not given) :: NO
CCCCN(CCCC)SN(C)C(=O)Oc1cccc2c1OC(C)(C)C2 :: NO

q: Just curious, what result did CCOP(=O)(O)C(N)=O get here?
a: NO

q: Just curious, what result did N#Cc1c(-c2ccc(Cl)cc2)[nH]c(C(F)(F)F)c1Br get here?
a: NO

q: Just curious, what result did Oc1ccccc1Br get here?
a: NO

q: Just curious, what result did c1ccc(OP(Oc2ccccc2)Oc2ccccc2)cc1 get here?
a: NO

q: Just curious, what result did OCC(F)(F)OC(F)(F)C(F)(F)OC(F)(F)C(F)(F)OC(F)(F)F get here?
a: NO

====

Read-out: Matrix Metallopeptidase 9 (MMP9), MMP9 (gene 4318)
protocol-description: BSK_KF3CT_MMP9: BioMAP Diversity Plus: KF3CT Assay for Matrix Metallopeptidase 9 (MMP9) Biomarker Activity (AID 2283074)
condition: primary human keratinocytes with fibroblasts; actives raise or lower the signal
Calls of active or inactive are those of the source. Rule for the calls: active = hit-call score of the fitted dose curve at least 0.9, where 1 is the maximum; inactive = score below 0.9.
Give your call using only these classes: active, inactive

q: Just curious, what result did CCOS(=O)(=O)OCC get here?
a: inactive

q: Just curious, what result did CCC1(c2ccccc2)C(=O)N=C(O)NC1=O (configuration not stated) get here?
a: inactive

q: Just curious, what result did O=S1(=O)OCC2C(CO1)C1(Cl)C(Cl)=C(Cl)C2(Cl)C1(Cl)Cl (configuration not stated) get here?
a: inactive

q: Just curious, what result did NC(=O)C(F)(F)C(F)(F)F get here?
a: inactive

q: Just curious, what result did CCCCCCCc1ccc(O)cc1 get here?
a: active

q: Just curious, what result did CCOP(=S)(NC(C)C)Oc1ccccc1C(=O)OC(C)C (configuration not stated) get here?
a: inactive

q: Just curious, what result did CCOC(=O)c1ccccc1C(=O)OCC get here?
a: inactive

q: Just curious, what result did FC(F)(F)C(F)(C(F)(F)F)C(F)(F)C(F)(F)CC1CO1 (configuration not stated) get here?
a: inactive

q: Just curious, what result did ClC(Cl)(Cl)c1ccccc1 get here?
a: inactive

q: Just curious, what result did C=CC(=O)OCC(CC)(COC(=O)C=C)COC(=O)C=C get here?
a: active

q: Just curious, what result did O=P(OCC(Br)CBr)(OCC(Br)CBr)OCC(Br)CBr (configuration not stated) get here?
a: active

q: Just curious, what result did CCOP(=S)(Oc1ccc([N+](=O)[O-])cc1)c1ccccc1 (configuration not stated) get here?
a: inactive

q: Just curious, what result did Cc1cccc(N)c1 get here?
a: inactive

q: Just curious, what result did COP(=O)(CCC(=O)NCO)OC get here?
a: inactive

q: Just curious, what result did CC(O)C(F)(F)C(F)(F)F (configuration not stated) get here?
a: inactive

q: Just curious, what result did O=S(=O)(F)C(F)(F)C(F)(F)C(F)(F)C(F)(F)C(F)(F)C(F)(F)C(F)(F)C(F)(F)F get here?
a: inactive

q: Just curious, what result did CCCCc1ccccc1 get here?
a: inactive

q: Just curious, what result did Cc1c([N+](=O)[O-])cc2c(c1[N+](=O)[O-])C(C)(C)CC2(C)C get here?
a: inactive

q: Just curious, what result did COP(=O)(O)OC get here?
a: inactive

q: Just curious, what result did O=C(O)C=CC(F)(C(F)(F)F)C(F)(F)F get here?
a: inactive

q: Just curious, what result did CCCCC(CC)COC(=O)c1c(Br)c(Br)c(Br)c(Br)c1C(=O)OCC(CC)CCCC (configuration not stated) get here?
a: inactive

q: Just curious, what result did [N-]=[N+]=[N-] get here?
a: inactive

====

protocol-description: CCTE_Shafer_MEA_dev_per_burst_spike_percent: CCTE's Neural Network Formation Assay for Percent of Spikes in a Burst, Shafer Lab (AID 2284032)
The source made the active and inactive calls. How the source made its calls: active means hit-call score of the fitted dose curve at least 0.9, where 1 is the maximum; inactive means score below 0.9.
Give your call using only these classes: 1.0 (active), 0.0 (inactive)

c1cc2c3c(cccc3c1)CC2 :: 0.0
O=S(=O)(c1ccc(O)cc1)c1ccc(O)cc1 :: 0.0
c1ccc(OP(Oc2ccccc2)Oc2ccccc2)cc1 :: 0.0
O=C(O)C(F)(F)C(F)(F)C(=O)O :: 0.0
O=C(O)C1C(C(=O)O)C2(Cl)C(Cl)=C(Cl)C1(Cl)C2(Cl)Cl (configuration not stated) :: 0.0
CCOc1ccc(C(C)(C)COCc2cccc(Oc3ccccc3)c2)cc1 :: 1.0
OCC(F)(F)OC(F)(F)C(F)(F)OC(F)(F)C(F)(F)OC(F)(F)F :: 0.0
C=CC(=O)OCC(F)(F)C(F)F :: 1.0
O=C(O)C(F)(F)OC(F)(F)C(F)(F)OC(F)(F)C(=O)O :: 0.0
CCCCC(CC)COC(=O)c1c(Br)c(Br)c(Br)c(Br)c1C(=O)OCC(CC)CCCC (configuration not stated) :: 0.0

q: Just curious, what result did O=C(O)C=CC(F)(C(F)(F)F)C(F)(F)F get here?
a: 0.0

q: Just curious, what result did ClC1=C(Cl)C2(Cl)C3C(Cl)C(Cl)CC3C1(Cl)C2(Cl)Cl (configuration not stated) get here?
a: 1.0

====

Read-out: Cytochrome P450 7A1 (Homo sapiens) (UniProt P22680)
protocol-description: LTEA_HepaRG_CYP7A1: Life Technologies and Expression Analysis (LTEA) Assay for Cytochrome P450 7A1 (CYP7A1) using HepaRG (AID 2283496)
condition: mRNA level, 48 h; actives raise or lower the signal
Method: LTEA_HepaRG is a cell based, multiplexed-readout assay that uses HepaRG, a human liver cell line, with measurements taken at 48 hours after chemical dosing on a 96-well plate.LTEA_HepaRG_CYP7A1 is one of 102 assay component(s) measured in the LTEA HepaRG cell culture assay. It is a marker of NR mediated metabolism.Data from the assay component LTEA_HepaRG_CYP7A1 was analyzed into 1 endpoint. […]
Calls of active or inactive are those of the source. How the source made its calls: active means hit-call score of the fitted dose curve at least 0.9, where 1 is the maximum; inactive means score below 0.9.
Give your call using only these classes: T for active, F for inactive

CC(Cc1ccc(OCC(=O)O)cc1)NCC(O)c1csc(C(F)(F)F)n1 (stereo not given) :: F
CCCCN(CCCC)N=O :: F
CCOP(=S)(OCC)SCSCC :: F
CCCCc1ccccc1 :: F
Nc1cc2c3c(c1)C(c1ccccc1)=N[C@@H](NC(=O)c1cccnc1)C(=O)N3CC2 :: F
c1ccc(OP(Oc2ccccc2)Oc2ccccc2)cc1 :: F
c1nc[nH]n1 :: F
ClC(Cl)c1ccccc1 :: F
O=[N+]([O-])c1ccc(Cl)c(Cl)c1 :: F
c1ccc2c(c1)Nc1ccccc1S2 :: T

q: Just curious, what result did CSC(C)(C)C=NO get here?
a: F

q: Just curious, what result did O=P(Oc1ccccc1)(Oc1ccccc1)Oc1ccccc1 get here?
a: F

====

Read-out: Peroxisomal acyl-coenzyme A oxidase 1 (ACOX1) gene, ACOX1 (gene 51)
protocol-description: LTEA_HepaRG_ACOX1: Life Technologies and Expression Analysis (LTEA) Assay for Peroxisomal acyl-coenzyme A oxidase 1 (ACOX1) gene using HepaRG (AID 2283467)
condition: mRNA level, 48 h; actives raise or lower the signal
Calls of active or inactive are those of the source. How the source made its calls: active means hit-call score of the fitted dose curve at least 0.9, where 1 is the maximum; inactive means score below 0.9.
readout-name: outcome

O=P1(N(CCCl)CCCl)NCCCO1 (stereo not drawn) :: inactive
CCOP(=S)(Oc1ccc([N+](=O)[O-])cc1)c1ccccc1 (stereo not drawn) :: inactive
CCOS(=O)(=O)OCC :: inactive

====

protocol-description: ATG_M_32_CIS: Attagene CIS-FACTORIAL HepG2 Assay for M32 Transcription Factor (Internal Marker) (AID 2282949);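 further: background control marker of the multiplexed CIS panel rather than a real target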
condition: HepG2 Attagene cis-factorial M32 reporter, mRNA; actives raise or lower the signal
Active and inactive are the calls of the source. How the source made its calls: active means hit-call score of the fitted dose curve at least 0.9, where 1 is the maximum; inactive means score below 0.9.
Give your call using only these classes: active, inactive

q: Just curious, what result did C=CC(=O)OCC(F)(F)C(F)F get here?
a: inactive

q: Just curious, what result did Oc1ccc(I)cc1 get here?
a: inactive

q: Just curious, what result did O=[N+]([O-])c1ccccc1 get here?
a: inactive

q: Just curious, what result did Cc1cccc(N)c1 get here?
a: inactive

q: Just curious, what result did ClC(Cl)=C(c1ccc(Cl)cc1)c1ccccc1Cl get here?
a: inactive

q: Just curious, what result did CCN(CC)c1ccccc1 get here?
a: inactive

q: Just curious, what result did CC(C)(C)c1ccccc1OP(=O)(Oc1ccccc1)Oc1ccccc1 get here?
a: inactive

q: Just curious, what result did CCOP(=S)(Oc1ccc([N+](=O)[O-])cc1)c1ccccc1 (stereo not given) get here?
a: inactive

q: Just curious, what result did C=CC(=O)OCC(CC)(COC(=O)C=C)COC(=O)C=C get here?
a: inactive

q: Just curious, what result did ClC(Cl)(Cl)c1ccccc1 get here?
a: inactive
